# SYSTEM: T1, RAD52(∆C) (Homo sapiens, UniProt P43351 1-400, del401-418)
# T1 sequence: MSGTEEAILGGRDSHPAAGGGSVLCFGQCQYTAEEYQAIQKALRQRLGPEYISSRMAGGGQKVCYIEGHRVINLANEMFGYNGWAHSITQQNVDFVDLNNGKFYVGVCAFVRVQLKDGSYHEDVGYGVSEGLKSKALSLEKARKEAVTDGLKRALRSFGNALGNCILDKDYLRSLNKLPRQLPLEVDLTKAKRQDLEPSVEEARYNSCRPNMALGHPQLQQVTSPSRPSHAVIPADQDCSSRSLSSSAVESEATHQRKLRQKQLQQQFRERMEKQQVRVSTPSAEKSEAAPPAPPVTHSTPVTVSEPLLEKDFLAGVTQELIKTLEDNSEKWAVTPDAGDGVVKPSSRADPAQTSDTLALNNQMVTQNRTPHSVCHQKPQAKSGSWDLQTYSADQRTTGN
# EXPERIMENT_DESCRIPTION: fluorescence anisotropy; 1 mM Mg(OAc)2; FA: 25 mM HEPES pH 8.0, 0.2 M KOAc, 10% glycerol, 0.25 mM TCEP, 1 mM Mg(OAc)2, 0.01% Brij-35, 25 °C, 10 nM DNA; BLI: 25 mM HEPES pH 8.0, 200 mM KOAc, 0.01% Tween-20, 1 mM Mg(OAc)2, 0.25 mM TCEP, 25 °C
# MEASUREMENT_CONTEXT: protein: recombinant; tags: none (tags removed); chain copies: 11; label: 5' 6-FAM; single strand
MEASUREMENT_TYPE: pKd
Give bare numbers, as −log10 of the molar value.

// sample TATCGAATCCGTCTAGTCAACGCTGCCGAATTCTACCAGT (ssDNA) [FAM-SSA4 (40 nt)] , its pKd was 9.70
